Can you tell me pKi for the items I'm about to list?
- TGT: human D2R (Homo sapiens (Human))
- TEST_SUMMARY: Radioligand competition binding, [3H]N-methylspiperone, HEK293 membranes expressing human D2R
- COND: Table 1A; HEK 293 cells transfected with hD2LR, [3H]N-methylspiperone; read-out: D2R Ki ± SEM
Give bare numbers, as −log10 of the molar value.

compound="CCc1cccc(N2CCN(CC(O)CCNC(=O)c3cc4ccccc4[nH]3)CC2)c1Cl (racemic) [Compound 19]" observed_result=6.82
compound="CCc1cccc(N2CCN(C/C=C/CNC(=O)c3nc(C)c[nH]3)CC2)c1Cl [Compound 35]" observed_result=7.79

// CCc1cccc(N2CCN(CC(O)CCNC(=O)c3nc(C)c[nH]3)CC2)c1Cl (stereo not drawn) [Compound 27] : pKi value = 6.82

----------
- TGT: UniProt P35462
- Sequence (P35462 whole entry): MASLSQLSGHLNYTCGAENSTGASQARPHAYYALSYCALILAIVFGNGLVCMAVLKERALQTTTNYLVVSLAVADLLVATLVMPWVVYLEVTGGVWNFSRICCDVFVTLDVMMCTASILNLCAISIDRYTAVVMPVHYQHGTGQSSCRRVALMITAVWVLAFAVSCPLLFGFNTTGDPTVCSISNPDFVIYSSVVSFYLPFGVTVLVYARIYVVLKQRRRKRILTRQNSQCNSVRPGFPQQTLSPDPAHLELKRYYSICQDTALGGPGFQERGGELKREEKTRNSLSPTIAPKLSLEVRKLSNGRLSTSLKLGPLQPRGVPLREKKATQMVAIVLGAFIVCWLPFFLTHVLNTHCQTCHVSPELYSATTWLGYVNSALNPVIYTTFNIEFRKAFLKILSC
- TEST_SUMMARY: Radioligand competition binding, [3H]N-methylspiperone, HEK293 membranes expressing human D3R
- COND: Table 1C; read-out: D3R Ki ± SEM
- Description: Binding at dopamine D2-like receptors was determined using previously described methods. […] Radioligand competition binding experiments were conducted using thawed membranes. […] Nonspecific binding was determined using 10 μM butaclamol (Sigma-Aldrich, St. Louis, Mo.) and total binding was determined with 30% DMSO vehicle. […] Reported Ki values were determined from least three independent experiments. […]
Answer each item with its documented Ki.
One number for each entry, in nM.

Observe how each entry below is paired with its result.
compound="CCc1cc(Cl)c(OC)c(N2CCN(C[C@H](F)CCNC(=O)c3cc4ccccc4[nH]3)CC2)c1 [(R)-C4a]" observed_result=13
compound="CCc1cc(Cl)c(OC)c(N2CCN(CC(F)CCNC(=O)c3cc4ccccc4o3)CC2)c1 (racemic) [Compound C4b]" observed_result=99.9
compound="CCc1cccc(N2CCN(CC(F)CCNC(=O)c3cc4ccccc4[nH]3)CC2)c1Cl (racemic) [Compound C5a]" observed_result=0.756

Each of the following entries comes with a recorded value; kindly state Ki for each.
1. CCc1cccc(N2CCN(C[C@H](F)CCNC(=O)c3cc4ccccc4[nH]3)CC2)c1Cl [(R)-C5a]
2. CCc1cc(Cl)c(OC)c(N2CCN(C[C@H](O)CCNC(=O)c3cc4ccccc4[nH]3)CC2)c1 [(R)-29]
3. CCc1cccc(N2CCN(CC(O)CCNC(=O)c3ccc4c(c3)OCO4)CC2)c1Cl (centres unmarked) [Compound 113b]
4. CCc1cccc(N2CCN(CC(F)CCNC(=O)c3cc4ccccc4o3)CC2)c1Cl (racemic) [Compound C5b]
5. CCc1cc(Cl)c(OC)c(N2CCN(C[C@@H](F)CCNC(=O)c3cc4ccccc4[nH]3)CC2)c1 [(S)-C4a]

// result
1: 0.373; 2: 7.4; 3: 3.02; 4: 2.45; 5: 35.3

----------
Please respond with reported Ki for every item in the list.
- TGT: human D2R (Homo sapiens (Human), UniProt P14416)
- Sequence (P14416 whole entry): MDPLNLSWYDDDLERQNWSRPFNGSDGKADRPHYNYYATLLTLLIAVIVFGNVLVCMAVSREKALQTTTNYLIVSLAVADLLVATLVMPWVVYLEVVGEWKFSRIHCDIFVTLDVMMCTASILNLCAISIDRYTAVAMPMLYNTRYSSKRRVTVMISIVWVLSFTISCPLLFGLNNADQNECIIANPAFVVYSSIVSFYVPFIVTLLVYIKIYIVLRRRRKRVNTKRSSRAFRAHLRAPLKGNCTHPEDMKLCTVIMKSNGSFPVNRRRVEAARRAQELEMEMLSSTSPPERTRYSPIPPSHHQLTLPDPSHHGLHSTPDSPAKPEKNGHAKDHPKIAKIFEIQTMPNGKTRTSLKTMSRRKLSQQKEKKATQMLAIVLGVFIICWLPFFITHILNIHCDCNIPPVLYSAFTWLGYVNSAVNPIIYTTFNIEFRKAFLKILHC
- TEST_SUMMARY: Radioligand competition binding, [3H]N-methylspiperone, HEK293 membranes expressing human D2R
- COND: Table 1C; read-out: D2R Ki ± SEM
Give bare numbers, in µM.

compound="CCc1cc(Cl)c(OC)c(N2CCN(C[C@@H](O)CCNC(=O)c3cc4ccccc4[nH]3)CC2)c1 [(S)-29]" unit_label=µM observed_result=13.5
compound="CCc1cc(Cl)c(OC)c(N2CCN(C[C@H](F)CCNC(=O)c3cc4ccccc4[nH]3)CC2)c1 [(R)-C4a]" unit_label=µM observed_result=21.4
compound="CCc1cc(Cl)c(OC)c(N2CCN(C[C@H](O)CCNC(=O)c3cc4ccccc4[nH]3)CC2)c1 [(R)-29]" unit_label=µM observed_result=10.8

Dear colleague, could you send me Ki for each of the items below? Thanks.
1. CCc1cc(Cl)c(OC)c(N2CCN(C[C@@H](F)CCNC(=O)c3cc4ccccc4[nH]3)CC2)c1 [(S)-C4a]
2. CCc1cc2c(cc1N1CCN(CC(O)CCNC(=O)c3cc4ccccc4o3)CC1)OCO2 (centres unmarked) [Compound 122]
3. CCc1cc(Cl)c(OC)c(N2CCN(CC(O)CCNC(=O)c3ccc4c(c3)OCO4)CC2)c1 (centres unmarked) [Compound 113a]

// result
1. 18.9
2. 1.44
3. 0.364

Hi there! I need Ki for each item below, if you can.
1. CCc1cccc(N2CCN(CC(O)CCNC(=O)c3ccc4c(c3)OCO4)CC2)c1Cl (centres unmarked) [Compound 113b]
2. CCc1cccc(N2CCN(C[C@H](O)CCNC(=O)c3cc4ccccc4[nH]3)CC2)c1Cl [(R)-19]

// result
[0.424, 0.0758]

Data credit: patent US11337971B2
